This listing pairs molecules with measured growth.
# System: SK-MEL-28 melanoma
# test: NCI-60 one-dose screen, 48 h (100 = growth as untreated, 0 = no growth, -100 = all killed)
# measurement_conditions: 10 µM unless noted
Compounds without any hit were thinned out: in the full panel of roughly 83,000, 20% have a hit.
Answer format: numeric, % implied, no suffix.

Please review the following examples before continuing.
- item_smiles: "COc1cccc(NC(=O)NCCNc2nccc(-c3c(-c4ccc(F)cc4)nc4sccn34)n2)c1"
  growth / %: 92.2
- item_smiles: "O=C(O)c1occ(Cl)c1Cl"
  growth / %: 116
- item_smiles: "COc1cc(C(=O)Nc2ccc(N(C)C)cc2)cc(OC)c1OC"
  growth / %: 81.9
- item_smiles: "Cc1ccc(C(C)C)c(OCc2ccc(C(=O)N/N=C/c3cccc(O)c3O)cc2)c1"
  growth / %: 42.8

Data request: # return growth for `Nc1nc2cc(O)ccc2n2cc3c(F)cccc3c12` , test system: SK-MEL-28 melanoma
Data returned: 20

Data request: # return growth for `CCCCCCNC(=O)Oc1ccc(/C(=C(/C)Cc2ccc(OC)cc2)c2ccc(OCCN3CCCCC3)cc2)cc1` , test system: SK-MEL-28 melanoma
Data returned: 96.8
